Biological target: T1, human CD30, native, expressed on cells (human)
T1 construct: also called native CD30; CD30 on L540, L428, A431/CD30, Karpas299, SUDHL-1 and other CD30-positive cells
T1 chain: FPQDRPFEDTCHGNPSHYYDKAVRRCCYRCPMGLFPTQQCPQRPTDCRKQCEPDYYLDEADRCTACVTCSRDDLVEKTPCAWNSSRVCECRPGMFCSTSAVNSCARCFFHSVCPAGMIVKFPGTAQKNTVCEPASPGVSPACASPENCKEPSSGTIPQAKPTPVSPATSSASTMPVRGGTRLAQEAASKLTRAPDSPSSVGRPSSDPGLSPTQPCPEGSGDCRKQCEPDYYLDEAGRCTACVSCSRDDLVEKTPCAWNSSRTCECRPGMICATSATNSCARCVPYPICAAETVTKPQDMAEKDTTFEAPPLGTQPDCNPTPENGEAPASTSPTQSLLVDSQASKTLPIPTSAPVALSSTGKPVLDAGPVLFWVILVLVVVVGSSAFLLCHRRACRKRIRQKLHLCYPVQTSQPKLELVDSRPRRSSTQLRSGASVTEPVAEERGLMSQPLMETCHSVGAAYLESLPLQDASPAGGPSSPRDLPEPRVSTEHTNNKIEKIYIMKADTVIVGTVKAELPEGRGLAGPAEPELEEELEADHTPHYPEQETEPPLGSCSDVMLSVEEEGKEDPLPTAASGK
Experiment: FACS, L540 cells, MAb 5 µg/ml, control HeFi-I
The following binders are listed with their measured relative reactivity in FACS (% of control) values.
parameter.measured: relative reactivity in FACS (% of control)

- binder: "T13 MAb (antibody, V domains shown) VH: QVQLQQSGAELAKPGASVKMSCKASGYTFTTYWMHWVKQRPGQGLEWIGYINPSTGYTDYNEKFKDKATLTADKSSSTAYMQLSSLTSEDSAVYYCVRRGSYDGNPFAYWGQGTLVSVSA VL: DIVMTQSHKFMSTSVGDRVTITCKASQDVSTAVAWYQQKPGHSPKLLIYWASTRHTGVPDRFTGSGSGTDYTLTISSVQVEDLALYYCQQHYSTPFTFGSGTKLEIKR"
  reported.result: "111 % of control"
- binder: "T6 MAb (antibody, V domains shown) VH: QVQLKESGPGLVTPSQSLSITCTVSGFSLSKYSIHWVRQPPGRGLEWLGMIWGVENTDYNSALKSRLSISKDNSKSQVFLKMNSLQSDDTAMYYCARKDLGLYGMNYWGQGISVTVSA VL: DIVMTQSQKFMSTSVGDRVSVTCKASQNVGTNVAWYQQKPGQSPKALFYSASYRYSGVPDRFIGSGSGTVFTLTISNVQSEDLAEYFCQQYNTYPLTFGSGTKLEIER"
  reported.result: "111 % of control"
- binder: "T24 MAb (antibody, V domains shown) VH: QVQLQQPGAELVRPGASVKLSCKASGYSFTSYWIDWVKQRPGQGLEWIGNIYPSNAYTNYNQKFKDKATLTVDKSSSTAYMQLSSPTSEDSAVYYCTSVLDYFYAMDYWGQGTSVTVSS VL: DIQMTQTTSSLSASLGDRVTISCRASQDISNYLNWYQQKPDGTVKLLIYYTSRLHSGVPSRFSGSGSGTDYSLTISNLEQEDIATYFCQQVNTLPRTFGGGTKLEIKR"
  reported.result: "117 % of control"
- binder: "T25 MAb (antibody, V domains shown) VH: QVTLKESGPGILQPSQTLSLTCSFSGFSLNTSGVGVGWIRQPSGKGLEWLAHIWWDDDERYNPVLKSRLTISKDTSSNQVFLKIANVDTADSATYYCVRSMVAWFPYWGRGTLVTVSA VL: DIVMSQSPSSLAVSVGEKFTVNCKSSQSLLYSSNQKNFLAWYQQKPGQSPKLLIYWASTRESGVPDRFIGSGSGTDFTLTISSVKAEDLAVYYCQQHYRYPWTFGGGTKLEIKR"
  reported.result: "27.8 % of control"
